# Measurement notes: yeast display, Sf9 membrane polyspecificity reagent, FACS + sequencing; frameworks hold sequencing errors

{"Input sequence": "QVQLVESGGGLVQAGGSLRLSCAASGSTISKYAMGWYRQAPGKERYLVAAISSRGGSTYYADSVKGRFTISRDNAKNTVYLQMNSLTPEDTAVYYCNATPYPGGNGRWRFWKSYRYWGQGTQVTVSS", "polyreactivity (PSR sort gate)": "high polyreactivity"}
{"Input sequence": "QVQLVESGGGLVQAGGSLRLSCAASGLTFEKYAMGWYRQAPGKERELVAAISQDGGSTYYADSVKGRFTISRDNAKNTVYLQMNSLKPEDTAVYYCAAEDPDSWLPWDLFDYWGQGTQVTVSS", "polyreactivity (PSR sort gate)": "low polyreactivity"}
{"Input sequence": "QVQLVESGGGLVQAGGSLRLSCAASGITFIVNTMGWYRQAPGKEREFVATISANSDGTYYADSVKGRFTISRDIAKNTVYLQKNSLKPEDTAVYYWGQGTQVTVSS", "polyreactivity (PSR sort gate)": "low polyreactivity"}
{"Input sequence": "QVQLVESGGGLVQAGGSLRLSCAASGSIFWSNAMGWYIQAPGKERELVAAITGGGTTNYADSVKGRFTISRDNAKNTVYLQMNSLKPEDTAVVYTVSSAQYDYWGQGTQVTVSS", "polyreactivity (PSR sort gate)": "low polyreactivity"}
{"Input sequence": "QVQLVESGGGLVQAGGSLRLSCAASGRTFLAMGWYRQAPGKERELVAAISRTNYADSVKGRFTISRDNAKNTVYLQMNSLKPEDTAVYYCAKEYYSYEVYLGLSYVRRYDYWGQGTQVTVSS", "polyreactivity (PSR sort gate)": "low polyreactivity"}
{"Input sequence": "QLQLVESGGGLVQAGGSLRLSCAASGRIFQRYAMGWYRQAPGKERELVAGITSSGGSTYYADSVKGRFTISRDNAKNTVYLQMNSLKPEDTAVYYCNAGGELRYYGYRAGGTTRSYDYWGQGTQVTVSS", "polyreactivity (PSR sort gate)": "low polyreactivity"}
{"Input sequence": "QVQLVESGGGLVQAGGSLRLSCAASGRIFTVFGMGWYRQAPGKERELVAAISWSGGGTYYADSVKGRFTISRDNAKNTVYLQMNSLKPEDTAVYYCNAVRQYTWSLVFFSSDYDYWGQGTQVTVSS", "polyreactivity (PSR sort gate)": "low polyreactivity"}
{"Input sequence": "QVQLVESGGGLVQAGGSLRLSCAASGSTFRYNVMGWYRQAPGKERELVAAISSGGSTYYADSVKGRFTISRDNAKNTVYLQMNSLKPEDTAVYYCAAPRYLFFVGLGMDYWGQGTQVTVSS", "polyreactivity (PSR sort gate)": "high polyreactivity"}
{"Input sequence": "QVQLVESGGGLVQAGGSLRLSCAASGSTFVHYAMGWYRQAPGKERELVAAITISGGRTYYADSVKGRFTISRDNAKNTVYLQMNSLKAEDTAVYYCNADHYHRTWGYDYWGQGTQVTVSS", "polyreactivity (PSR sort gate)": "low polyreactivity"}
{"Input sequence": "QVQLVESGGGLVQAGGSLRLSCAASGSIFEPNAMGWYSQAPGKERELVAAISWNDGDTYYADSVKGRFTISRDNAKNTVYLQMNSLKPEDTAVYYCAAETGYAFDYWGQGTQVTVSS", "polyreactivity (PSR sort gate)": "low polyreactivity"}
{"Input sequence": "QLQLVESGGGLVQAGGSLRLSFAAYGRTFTSNAKGWSRPAPGKERELVAGITSSTGNTHYADSVKGRFTSSRDNAKNTVNFQMNSLKPEDTAVFYCAAVYYVRGYWGTYSRWYDYWGQGTQVTVSS", "polyreactivity (PSR sort gate)": "high polyreactivity"}
